Source listed as patent US6924288B2.

Assay: Respiratory depression by blood gas (pCO2) monitoring in rats
Type: in vivo
Settings: male, Wistar Hannover, in vivo; rat, intravenous
measured.parameter: ED50

INSERT INTO assay_data (molecule, measured_parameter, result) VALUES
  ('C=CCN1C[C@H](C)N([C@@H](c2ccsc2)c2cccc(O)c2)C[C@H]1C [Compound 5]', 'ED50', '0.067 mg/kg'),
  ('C=CCN1C[C@@H](C)N([C@@H](c2ccsc2)c2cccc(O)c2)C[C@@H]1C [Compound 3]', 'ED50', '> 6 mg/kg'),
  ('C=CCN1C[C@H](C)N([C@H](c2ccsc2)c2cccc(O)c2)C[C@H]1C', 'ED50', '0.72 mg/kg'),
  ('C=CCN1C[C@H](C)N([C@@H](c2ccsc2)c2cccc(O)c2)C[C@H]1C (racemic) [Compound 4]', 'ED50', '0.12 mg/kg'),
  ('C=CCN1C[C@@H](C)N([C@@H](c2ccsc2)c2cccc(O)c2)C[C@@H]1C (racemic) [Compound 1]', 'ED50', '0.98 mg/kg'),
  ('C=CCN1C[C@@H](C)N([C@H](c2ccsc2)c2cccc(O)c2)C[C@@H]1C', 'ED50', '> 6 mg/kg');
